Can you tell me TGI for the items I'm about to list?
- Tested on: IGROV1 ovarian
- Measurement description: NCI tumour cell line growth inhibition, 48 h
Where a SMILES comes first, the peptide text is derived from it.

TGI reading for CCOC(=O)CCC(NC(=O)c1ccc(Nc2nc3ccccc3n3cccc23)cc1)C(=O)OCC (stereo not drawn) : > 100 µM

Recorded result, CC(=O)NC(CS)C(=O)NC(CO)C(=O)NC(CO)C(=O)NC(Cc1c[nH]c2ccccc12)C(=O)N1CCCC1C(=O)NC(CO)C(=O)NC(Cc1c[nH]c2ccccc12)C(=O)NC(Cc1c[nH]cn1)C(=O)NC(CO)C(=O)NC(Cc1c[nH]c2ccccc12)C(=O)NCC(=O)NCC(=O)NC(CC(=O)O)C(=O)NC(CCC(N)=O)C(=O)NC(CCCCN)C(=O)NC(Cc1ccccc1)C(=O)NC(CCCNC(=N)N)C(=O)NC(CCCCN)C(N)=O (stereo not drawn) (Ac-CSSWPSWHSWGGDQKFRK-NH2; configuration not given here) , TGI: > 25 µM

Lab note: measured TGI of CCOC(=O)C(Cc1ccccc1)NC(=O)OC(C)(C)C (stereo not drawn) was > 100 µM

---

- Tested on: CCRF-CEM leukemia
- Measurement description: NCI tumour cell line growth inhibition, 48 h
Endpoint name: TGI

Entry O=C1/C(=C/c2ccccc2)N=C(c2ccccc2)N1C1Nc2cc3c(cc2S1)NC(N1C(=O)/C(=C/c2ccccc2)N=C1c1ccccc1)S3 (stereo not given) : TGI on CCRF-CEM leukemia = > 100 µM

Entry CCC1(C(=O)OC)CCc2c(OC)ccc(OC)c2C1=O (stereo not given) ; assay system CCRF-CEM leukemia; TGI recorded at > 100 µM

The measured TGI that Cc1ccc(C2(O)CC(c3ccc([N+](=O)[O-])o3)=NN2C(=O)COc2ccccc2Cl)cc1 (stereo not given) showed for CCRF-CEM leukemia is > 100 µM

Log: CCRF-CEM leukemia, molecule CC[C@H](C)[C@H](NC(=O)Nc1ccccc1)C(=O)N(C)[C@H](C[C@@H](OC(C)=O)c1nc(C(=O)N[C@@H](Cc2ccccc2)C[C@H](C)C(=O)OC)cs1)C(C)C , TGI = > 100 µM

Tested on CCRF-CEM leukemia, the item N#CSCc1c(Cl)cccc1Cl showed TGI equal to > 43.8 µM

---

- Tested on: SF-539 CNS
- Measurement description: NCI tumour cell line growth inhibition, 48 h
I'd appreciate it if you could supply TGI values for the items below.

// sample Cc1nc(-c2cc3c(ccc4ccccc43)oc2=O)cc2c1c(=O)oc1ccc3ccccc3c12 , its TGI was > 100 µM

For CC1=C(C(=O)CC(=O)C(=O)Nc2ccccc2)Sc2ccccc2N1 the molecule record lists TGI as > 100 µM

Reported TGI for O=C1CSC(c2ccc(Cl)cc2)N1c1ccc(-c2ccc(-n3c(-c4ccccc4)nc4ccccc4c3=O)cc2)cc1 (stereo not drawn) was > 100 µM

---

Assignment: determine reported TGI for the given compounds.
- Test system: SF-539 CNS
- Measurement description: NCI tumour cell line growth inhibition, 48 h

Looking up CCc1ccc(Nc2cc(=O)[nH]c(=S)n2C)cc1 , I see its TGI listed as > 100 µM

In plain terms, COc1ccc(N2C(=O)c3cccnc3S2(=O)=O)cc1 has a documented TGI of > 100 µM

Field TGI (entry ICCC(c1ccccc1)(c1ccccc1)c1ccccc1 ) reads 16.1 µM

// recorded TGI for COc1ccc2oc(=O)c3c(c2c1C)OC(C)(C)C=C3 : > 100 µM

Memo: COc1ccc(C2=Nn3c(nc4sc(-c5ccccc5)cc4c3=O)SC2)cc1 , reported TGI: > 100 µM

// CC[C@H](C)C1=C(O)[N@+]2([O-])Oc3ccc(-c4c(O)c(O)c(-c5ccc(OC(C)=O)cc5)c(OC(C)=O)c4OC(C)=O)cc3O[C@]2([C@@H](C)CC)C(=O)N1O : TGI value = > 50 µM

So for COc1ccc2c(c1)CC[C@@H]1[C@@H]2CC[C@]2(C)C(=O)/C(=C/c3ccncc3)C[C@@H]12 , the logged TGI turned out to be 55.1 µM
